Cited source: PubChem BioAssay (NCI)

System: NCI-H23 lung
measurement.notes: NCI-60 one-dose screen, 48 h
measurement.context: 10 µM unless noted
This is part of a sample that, as a whole, favours compounds with a hit. Of some 83,000 tested, about 20% had one in any assay. Calls of active or inactive are those of the source. The calls were made as follows: active = growth percent below 10; inactive = the rest.
Possible outcomes: T for active, F for inactive

compound: CC1O[C@@H]2C[C@@](O)([C@H]1O)n1c3ccccc3c3c4c(c5c6ccccc6n2c5c31)C(=O)NC4=O (some centres undefined)
class: F
--
compound: Cc1nc2sc(C(=O)Nc3cccc(Cl)c3)c(N)c2cc1C(O)c1ccccc1 (centres undefined)
class: F
--
compound: COc1cc(/C=C/c2cc(/C=C/c3ccc(O)c(OC)c3)n(C(=O)Nc3ccc(F)cc3)n2)ccc1O
class: F
--
compound: C=C(CO)[C@@H]1CC[C@]2(COC3CCCCO3)CC[C@]3(C)[C@H](CC[C@@H]4[C@@]5(C)C=C(C=O)C(=O)C(C)(C)[C@@H]5CC[C@]43C)[C@@H]12 (some centres undefined)
class: T

###

Recorded measurements of growth, one per entry
Tested on: T-47D breast
measurement.notes: NCI-60 one-dose screen, 48 h (100 = growth as untreated, 0 = no growth, -100 = all killed)
measurement.context: 10 µM unless noted
The panel holds about 83,000 compounds, 20% with a hit somewhere; the sample as a whole holds those more often. The source made the active and inactive calls. Rule for the calls: active = growth percent below 10; inactive = the rest.

molecule: CCCNc1nc2ccccc2c2c(=O)c3cccc(Cl)c3sc12
growth: 51.8% (inactive)
--
molecule: CN1C(=O)N(C)C2C1NC(=S)N2/N=C/C=C/c1ccccc1[N+](=O)[O-] (stereo not drawn)
growth: 22.4% (inactive)
--
molecule: O=C(Nc1cccc(NC(=O)C2CCCCC2)c1)c1ccccn1
growth: 95.7% (inactive)
--
molecule: Cc1cccc(NC(=O)CSc2nc3ccc([N+](=O)[O-])cc3[nH]2)c1
growth: 51.8% (inactive)
--
molecule: COc1cc(/C=C2\CN(S(=O)(=O)c3ccc(C)cc3)C/C(=C\c3cc(CN4CCCCC4)c(O)c(OC)c3)C2=O)cc(CN2CCCCC2)c1O
growth: 33.8% (inactive)
--
molecule: CN1CCN(Cc2ccc(NC(=O)c3cncc(C#Cc4cncc5[nH]ncc45)c3)cc2C(F)(F)F)CC1
growth: 31.3% (inactive)
--
molecule: COP(=O)(OC)c1nnn(-c2cccc([N+](=O)[O-])c2)c1C
growth: 99.4% (inactive)
--
molecule: C/C(=N\Nc1nc(C)cs1)c1cc2ccccc2o1
growth: 21.4% (inactive)
--
molecule: COc1cc(-c2nc(NC(C)=O)sc2-c2ccnc(NCCNS(=O)(=O)c3ccccc3)n2)ccc1Cl
growth: 41.8% (inactive)
--
molecule: O=C1/C(=C/c2ccccc2)CN(C(=O)c2cccnc2)C/C1=C\c1ccccc1
growth: 9% (active)
--
molecule: CCOc1ccc(/C=N\N=C\c2ccc(OCC)cc2)cc1
growth: 94.7% (inactive)
--
molecule: COc1cccc(/C=C/C(=O)c2cc3c(N)c(C(=O)Nc4ccccc4C)sc3nc2C)c1
growth: 56.2% (inactive)
--
molecule: C#CC#CC#CC#CC#CC#CC#CC#CC[C@H]1OC[C@H](COC(=O)O[C@@H](C(=O)O[C@H]2C[C@@]3(O)[C@@H](OC(=O)c4ccccc4)[C@@H]4[C@]5(OC(C)=O)CO[C@@H]5C[C@H](O)[C@@]4(C)C(=O)[C@H](OC(C)=O)C(=C2C)C3(C)C)[C@@H](NC(=O)c2ccccc2)c2ccccc2)O1
growth: 40.6% (inactive)
--
molecule: Cc1ncc(C(=O)Nc2ccc(CN3CCN(C)CC3)c(C(F)(F)F)c2)cc1C#Cc1cnc(N)c2cnccc12
growth: 8.63% (active)
--
molecule: NC(=O)c1c(NC(=O)c2ccc(Cl)cc2)sc2c1CCC(=O)C2
growth: 35.9% (inactive)
--
molecule: COc1ccc(/C=C/C(=O)c2cc3c(N)c(C(=O)Nc4ccccc4C)sc3nc2C)cc1
growth: 39.9% (inactive)
--
molecule: COc1cc(C(=O)C(=O)c2cc(OC)c(O)c(OC)c2)cc(OC)c1O
growth: 98.1% (inactive)
--
molecule: CN1CCN(c2ccc(NC(=O)c3cncnc3Nc3ccc4c(ccn4Cc4cccc(F)c4)c3)cc2)CC1
growth: 48.8% (inactive)
